- Test system: ACHN
- assay.remarks: NCI tumour cell line growth inhibition, 48 h
Calls of active or inactive are those of the source. No stated cut-off is given here; in the data, active = GI50 up to about 1.1 µM and inactive = higher.
Listed molecules paired with reported GI50

- molecule: "CC1=NN(C(=O)c2ccc(Cl)cc2)C(=O)/C1=C/c1cccc(O)c1"
  GI50: "> 100 µM (inactive)"
- molecule: "CCN(CC)CCNc1ccc2ncn3c4c(OC)ccc(OC)c4c(=O)c1c23"
  GI50: "4.1 µM (inactive)"
- molecule: "Nc1nc(NCCCO)cc(=O)[nH]1"
  GI50: "> 100 µM (inactive)"
- molecule: "NCC(=O)Nc1ccc(Cl)cc1C(=O)c1ccc[nH]1"
  GI50: "> 74 µM (inactive)"
- molecule: "O=C1C(Cl)=C(NCCF)C(=O)c2ncccc21"
  GI50: "2.19 µM (inactive)"
- molecule: "CC(=O)OC1COC(Nn2c(=O)[nH]c3ccccc3c2=O)C(OC(C)=O)C1OC(C)=O (configuration not stated)"
  GI50: "> 100 µM (inactive)"
- molecule: "Cn1c(=O)c2c(nc(-n3nc(-c4ccc(Cl)cc4)cc3N)n2C)n(C)c1=O"
  GI50: "> 100 µM (inactive)"
- molecule: "COc1ccc(/N=C2\\C(=O)C3=C(OC(C)(C)CC3)c3ccccc32)cc1"
  GI50: "0.845 µM (active)"
- molecule: "C(=N/Nc1ccc(-c2nc3ccccc3[nH]2)cc1)/c1c(-c2ccccc2)[nH]c2ccccc12"
  GI50: "0.575 µM (active)"
- molecule: "CCOC(=O)C(=Cc1[nH]c2ccccc2c1-c1c[nH]c2ccccc12)C(=O)OCC"
  GI50: "12.2 µM (inactive)"
- molecule: "Nc1nc(Cl)cc(NCC2(O)CCC2)n1"
  GI50: "> 100 µM (inactive)"
- molecule: "CCc1cc2c(c3c1CCCC3=O)CC1(Cc3ccc(C(=O)OC)cc3C1)C2 (configuration not stated)"
  GI50: "25.6 µM (inactive)"
- molecule: "S=c1c2ccccc2c(=S)n2n1CC=CC2"
  GI50: "> 100 µM (inactive)"
- molecule: "CCOC(=O)Nc1[nH]cc(-c2ccccc2)c1C#N"
  GI50: "> 100 µM (inactive)"
- molecule: "COc1ccc(-c2oc3cc(O)c(OC)c(O)c3c(=O)c2O)cc1 [BETULETOL]"
  GI50: "2.77 µM (inactive)"
- molecule: "COc1cc2c(cc1OC)C(C)N(C)c1c-2c(OC(C)=O)cc2cc(OC)c(OC)cc12 (configuration not stated)"
  GI50: "17.3 µM (inactive)"
- molecule: "CS(=O)(=O)ON1C(=O)c2ccc(N)cc2C1=O"
  GI50: "> 100 µM (inactive)"
- molecule: "C/N=c1/ssc(=S)n1C(C)C"
  GI50: "20.8 µM (inactive)"
- molecule: "CCCCc1ccc(-n2sc3ncc(C)cc3c2=O)cc1"
  GI50: "30.9 µM (inactive)"
- molecule: "Oc1cccnc1CN1CCCCC1"
  GI50: "> 100 µM (inactive)"
- molecule: "CN(C)c1ccc(/C=C(\\NC(=O)c2ccccc2)C(=O)NCC(=O)O)cc1"
  GI50: "> 100 µM (inactive)"
- molecule: "COC(=O)c1c(O)ccc2c1c1c(n2Cc2ccc(Cl)cc2Cl)C(=O)c2ccccc2C1=O"
  GI50: "7.85 µM (inactive)"
- molecule: "CC(/C=C/C(=O)NO)=C\\C(C)C(=O)c1ccc(N(C)C)cc1 (configuration not stated)"
  GI50: "0.0231 µM (active)"
- molecule: "CC1CN=C(N(Cc2ccccc2)C(=O)Nc2ccc(Cl)c(Cl)c2)S1 (configuration not stated)"
  GI50: "12.6 µM (inactive)"
- molecule: "COc1c2c(cc3c1-c1c(cc4c(c1OC)OCO4)C1OC3C(C)C1C)OCO2.COc1cc2c(c(OC)c1OC)-c1c(cc3c(c1OC)OCO3)C1OC2C(C)C1C (configuration not stated)"
  GI50: "> 100 µM (inactive)"
- molecule: "c1cc(NC2=NCCO2)c2c(c1)OCO2"
  GI50: "> 100 µM (inactive)"
- molecule: "Cc1c(-c2ccccc2)c(C#N)c2nnn(C3CCCCC3)c(=O)n12"
  GI50: "50.5 µM (inactive)"
- molecule: "CC(C)(C)OC(=O)C(C#N)C(=O)c1ccc(C(=O)O)[nH]1 (configuration not stated)"
  GI50: "32.2 µM (inactive)"
- molecule: "Cc1cc(=O)oc2c1cc(OCC(=O)OCCN1CCCCC1)c1occ(C)c12"
  GI50: "> 100 µM (inactive)"
- molecule: "CC1(C)C(O)C[C@@H](O)[C@@]2(C)C1CC[C@]1(C)C2C[C@@H](O)[C@@H]2C([C@@]3(C)CC[C@@H](C(C)(C)O)O3)CCC21C (some centres not stated)"
  GI50: "19.1 µM (inactive)"
- molecule: "O=c1[nH]nc(-c2ccccc2)n1/N=C/c1c[nH]c2ccccc12"
  GI50: "> 100 µM (inactive)"
- molecule: "CCCCC/C=C\\C=C\\CCCCCCCCC(=O)OC"
  GI50: "> 100 µM (inactive)"
- molecule: "Cc1c(C)c2c(c(N)c1C#N)C(=O)N(O)C2=O"
  GI50: "> 100 µM (inactive)"
- molecule: "Cc1cc(C)nc(NS(=O)(=O)c2ccc(NC(=O)c3cccc4cc5ccccc5nc34)cc2)n1"
  GI50: "44.3 µM (inactive)"
- molecule: "COC1OC(C)C2OC(C)(C)OC2C1OC(C)=O (configuration not stated)"
  GI50: "> 100 µM (inactive)"
- molecule: "CCCCc1ccc(N2C(=O)c3cccnc3S2(=O)=O)cc1"
  GI50: "> 100 µM (inactive)"
- molecule: "CC(=O)O[C@H]1C(=O)[C@@]2(C)[C@H]([C@H](OC(=O)c3ccccc3)[C@]3(O)C[C@H](OC(=O)[C@H](O)[C@@H](NC(=O)c4ccccc4)C4CCCCC4)C(C)=C1C3(C)C)[C@]1(OC(C)=O)CO[C@@H]1C[C@@H]2O"
  GI50: "0.288 µM (active)"
- molecule: "N#Cc1c(-c2ccc(Cl)cc2)cc(-c2ccc(Nc3ccnc4cc(C(F)(F)F)ccc34)cc2)[nH]c1=O"
  GI50: "> 100 µM (inactive)"
- molecule: "Cc1cc(-c2ccc[nH]2)on1"
  GI50: "> 100 µM (inactive)"
- molecule: "NC(=O)c1ccc(/N=N/O)nc1"
  GI50: "> 100 µM (inactive)"
- molecule: "CS(=O)(=O)C[S+]([O-])C[S+]([O-])C[S+]([O-])CC(NC(=O)CCC(N)C(=O)O)C(=O)O (configuration not stated)"
  GI50: "> 100 µM (inactive)"
- molecule: "CCCC(=O)Nc1ncnc2c1ncn2C1OC2COP(=O)(O)OC2C1OC(=O)CCC (configuration not stated)"
  GI50: "> 100 µM (inactive)"
